Each recorded value in this set is attributed to PubChem BioAssay (NCI).

tested on: MDA-N; experiment: NCI tumour cell line growth inhibition, 48 h
molecules and their reported TGI

Example cases with answers are listed next.
Ask: What value of TGI has been recorded for this entry: CCOC(=O)C(=O)C(/C(=N/N(C)C)C(=O)Nc1ccc(C)cc1C)c1nc2ccccc2[nH]c1=O (centres undefined)
Reply: > 100 µM

Ask: What value of TGI has been recorded for this entry: FC(F)(F)C1(c2ccccc2)SCc2nc3ccccc3n21 (centres undefined)
Reply: > 100 µM

Ask: What value of TGI has been recorded for this entry: `CN[C@H]1CC[C@]23C[C@]24CC[C@]2(C)[C@@H]([C@H](C)N(C)C)CC[C@@]2(C)[C@@H]4CC[C@H]3C1(C)C`
Reply: 29.2 µM

Ask: What value of TGI has been recorded for this entry: `c1ccc(N2N=C3N(c4ccccc4)C2N3c2ccccc2)cc1`
Reply: 41.8 µM

Ask: What value of TGI has been recorded for this entry: Cc1nn(C(=O)c2ccncc2)c2c1C(c1ccc([N+](=O)[O-])cc1)SC(N)=N2 (centres undefined)
Reply: > 100 µM

Ask: What value of TGI has been recorded for this entry: `CC1(C)CN=C(Nc2ccc(F)c(Cl)c2)S1`
Reply: > 100 µM

Ask: What value of TGI has been recorded for this entry: COc1ccc2c(c1)OC1c3ccccc3OCC21 (centres undefined)
Reply: > 100 µM

Ask: What value of TGI has been recorded for this entry: C[C@H]1[C@H](C)CC[C@]2(C(=O)OC3OC(CO)C(O)C(O)C3O)CC[C@]3(C)C(=CC[C@@H]4[C@@]5(C)C[C@@H](O)[C@@H]6OC(=O)c7cc(O)c(O)c(O)c7-c7c(cc(O)c(O)c7O)C(=O)OC[C@]6(CO)[C@@H]5CC[C@]43C)[C@H]12 (some centres undefined)
Reply: 51.1 µM

Others:
Ask: What value of TGI has been recorded for this entry: `CNC(=S)N(C1CCCCC1)C1CCCCC1`
Reply: > 100 µM

----------
compounds and their reported TGI
test system: UO-31 renal; test: NCI tumour cell line growth inhibition, 48 h

Ask: What value of TGI has been recorded for this entry: `CC1(C)Oc2ccccc2[N+]([O-])=C1c1ccccc1`
Reply: > 100 µM

Ask: What value of TGI has been recorded for this entry: `CC(=O)Oc1cc(Cl)c(OC(C)=O)c2c(OC(C)=O)c(C)c(O[Si](C)(C)C(C)(C)C)cc12`
Reply: 26.3 µM

Ask: What value of TGI has been recorded for this entry: `COc1cc(OC)cc(C(=O)Cc2c(C(=O)c3ccccc3)c3ccccc3n2C(=O)c2ccccc2)c1`
Reply: > 100 µM

Ask: What value of TGI has been recorded for this entry: OC1(C2(c3ccc(Cl)cc3)CCCC2)c2ccccc2C2=NCCN21 (stereo not drawn)
Reply: 24.1 µM

Ask: What value of TGI has been recorded for this entry: `CN(/N=C/c1ccccc1C(=O)O)C1=NCCCCN1`
Reply: > 100 µM

Ask: What value of TGI has been recorded for this entry: `CSS(C)(=O)=O`
Reply: 52.1 µM

Ask: What value of TGI has been recorded for this entry: CC(c1ccccc1)C(O)S(=O)(=O)O (stereo not drawn)
Reply: > 100 µM

Ask: What value of TGI has been recorded for this entry: C/C=C(\C)C(=O)N1c2ccccc2CC1c1c(C)[nH]c2ccccc12 (stereo not drawn)
Reply: > 100 µM

----------
system: SF-295 CNS; assay: NCI tumour cell line growth inhibition, 48 h
experimental.readout: TGI

Example cases with answers are listed next.
Ask: What value of TGI has been recorded for this entry: `CN1CCN(Cc2ccc(NC(=O)c3cccc(C#Cc4c(N)ncc5ccc(F)cc45)c3)cc2C(F)(F)F)CC1`
Reply: 1.78 µM

Ask: What value of TGI has been recorded for this entry: `CC(=O)Oc1cc(Cl)c(OC(C)=O)c2c(OC(C)=O)c(C)c(O[Si](C)(C)C(C)(C)C)cc12`
Reply: 23 µM

Ask: What value of TGI has been recorded for this entry: `COC(=O)/C=C/c1cnc2c(c1)oc(=O)n2C`
Reply: > 100 µM

Ask: What value of TGI has been recorded for this entry: `Cc1ccc(N2C3=C(CC4=C2CC(C)(C)CC4=O)C(=O)CC(C)(C)C3)cc1`
Reply: > 100 µM

Ask: What value of TGI has been recorded for this entry: OC1(C2(c3ccc(Cl)cc3)CCCC2)c2ccccc2C2=NCCN21 (stereo not drawn)
Reply: 30.7 µM

Others:
Ask: What value of TGI has been recorded for this entry: O=C(CC1SC(=Nc2ccccc2Cl)NC1=O)Nc1ccc(Cl)cc1 (stereo not drawn)
Reply: > 100 µM

Ask: What value of TGI has been recorded for this entry: COc1ccc(NC(=O)CC(=O)N2N=C(C)C(N=Nc3ccc(C(=O)O)cc3)C2=O)cc1 (stereo not drawn)
Reply: > 100 µM

Ask: What value of TGI has been recorded for this entry: `O=c1oc2ccccc2n1CCCn1c(=O)oc2ccccc21`
Reply: > 100 µM

Ask: What value of TGI has been recorded for this entry: `CNC(=S)N(C1CCCCC1)C1CCCCC1`
Reply: > 100 µM

----------
system: HOP-92 NSCLC; test: NCI tumour cell line growth inhibition, 48 h
Criterion: TGI meeting or surpassing 10 µM. Met: Criterion met. Not met: Criterion not met.

Ask: Can `COc1ccc(OCC(C)(C)O)cc1` be said to have TGI at or above 10 µM?
Reply: Criterion met

Others:
Ask: Can O=C1CSC(c2cccc(Oc3ccccc3)c2)N1c1cccc(Cl)c1Cl (stereo not given) be said to have TGI at or above 10 µM?
Reply: Criterion met

----------
test system: UACC-257 melanoma; assay: NCI tumour cell line growth inhibition, 48 h
experimental.readout: log10 TGI (log10 of the value in µM)
Values reflect log10 of reported TGI (µM).

Ask: What value of log10 TGI has been recorded for this entry: `COc1cc2c(cc1OC)-c1ncc3cc(OC)c(OC)c(OC)c3c1C2`
Reply: 1.72

Others:
Ask: What value of log10 TGI has been recorded for this entry: `N[C@@H](Cc1ccc2oc3cc(=O)c4ccccc4c-3nc2c1)C(=O)O`
Reply: 1.63

Ask: What value of log10 TGI has been recorded for this entry: `C[C@]12CC/C(=N\O)C=C1CC[C@@H]1[C@@H]2CC[C@]2(C)C(=N/O)/C(=C/c3ccncc3)C[C@@H]12`
Reply: 1.90

Ask: What value of log10 TGI has been recorded for this entry: O=C1CCC(N2C(=O)c3cccc(NCCOCCOCCNC(=O)c4cc5c(o4)C(=O)c4ccccc4C5=O)c3C2=O)C(=O)N1 (stereo not given)
Reply: 0.45

Ask: What value of log10 TGI has been recorded for this entry: `Cc1nc(-n2nc(-c3ccccc3)cc2-c2ccccc2)sc1C(=O)/C=C/c1ccc(Cl)cc1`
Reply: 1.69

Ask: What value of log10 TGI has been recorded for this entry: `CCN(CC)CCOc1ccc(Cc2ccccc2)cc1`
Reply: 1.80

Ask: What value of log10 TGI has been recorded for this entry: `CCCCn1c(C)c2c(c1C)C(=O)N(CCN1CCN(c3ccccc3Cl)CC1)C2=O`
Reply: 1.87

Ask: What value of log10 TGI has been recorded for this entry: `COc1cccc(NC(=O)c2ccc(NC3=C(Cl)C(=O)N(Cc4ccccc4)C3=O)cc2)c1`
Reply: 1.59

----------
system: CCRF-CEM leukemia; assay: NCI tumour cell line growth inhibition, 48 h
experimental.readout: TGI (µM)
Answer in µM, number only, no unit symbol.

Example cases with answers are listed next.
Ask: What value of TGI has been recorded for this entry: CC(C)Cc1ccc(C(C)/C=C2\CCC(CN3CCCCC3)C2=O)cc1 (configuration not stated)
Reply: 5.51

Ask: What value of TGI has been recorded for this entry: `O=C(N[C@@H](Cc1ccccc1)B(O)O)[C@H](Cc1cccc2ccccc12)NC(=O)N1CCOCC1`
Reply: 0.0022

Ask: What value of TGI has been recorded for this entry: CC1(C)CC[C@]2(C(=O)O)CC[C@]3(C)C(=CC[C@@H]4[C@@]5(C)CC[C@H](OC6OC(CO)C(O)C(O)C6O)C(C)(C)[C@@H]5CC[C@]43C)[C@@H]2C1 (some centres not stated)
Reply: 6.36

Ask: What value of TGI has been recorded for this entry: `C=C1C(=O)O[C@H]2[C@H]1CC/C(Cn1cc(-c3ccsc3)nn1)=C\CC[C@@]1(C)O[C@@H]21`
Reply: 12.3

Ask: What value of TGI has been recorded for this entry: CCCCC(N)CSSCC(N)CCCC (configuration not stated)
Reply: 64.2

Others:
Ask: What value of TGI has been recorded for this entry: `COc1cc(C(=O)N(C(=S)OC23CC4CC(CC(C4)C2)C3)c2ccccc2)cc(OC)c1OC`
Reply: 36

Ask: What value of TGI has been recorded for this entry: `CC(C)(C)C(=O)CC(=O)C(F)(F)C(F)(F)C(F)(F)F.[Ag]`
Reply: 43.8

Ask: What value of TGI has been recorded for this entry: `O=C1c2ccccc2-c2c1c1ccc([N+](=O)[O-])cc1c(=O)n2CCCn1ccnc1`
Reply: 0.785

Ask: What value of TGI has been recorded for this entry: `COc1ccc(-c2cc(-c3ccc(Cl)cc3)nc(SCCCCCCC(=O)NO)n2)cc1`
Reply: 14.4
